molecular target: Nucleosome-remodeling factor subunit BPTF (Homo sapiens); experiment: Binding affinity to N-terminal His9 tagged human BPTF isoform 2 PHD (2722 to 2781 residues) expressed in Escherichia coli BL21 Star (DE3) assessed as change in chemical shift perturbations at 1 mM by 1H,15N HSQC NMR spectroscopy
Activity calls are given as the source filed them. The rule behind the calls is not given here.
Classes used: active, inactive

{"columns": ["Compound", "Cat"],
 "data": [
  ["Cc1ccc(Nc2ccc(N3CCNCC3)nn2)cc1", "inactive"],
  ["NCC1CCN(c2cccc(F)c2)C1 (centres undefined)", "active"],
  ["Fc1ccc(Nc2ccc(N3CCNCC3)nn2)cc1", "inactive"],
  ["N#Cc1c(N)sc2c1CCCC2", "active"]
]}

* * *

target: Nucleosome-remodeling factor subunit BPTF (Homo sapiens); experiment: Binding affinity to N-terminal His9 tagged human BPTF isoform 2 PHD (2722 to 2781 residues) expressed in Escherichia coli BL21 Star (DE3) at 400 uM by SPR assay
Active and inactive are the calls of the source. No cut-off for these calls is given here.
Classes used: 1 (yes) = active, 0 (no) = inactive

{"columns": ["Compound", "Cat"],
 "data": [
  ["N#Cc1c(N)sc2c1CCCC2", "0 (no)"],
  ["NCC1CCN(c2cccc(F)c2)C1 (centres undefined)", "1 (yes)"],
  ["COC1CN(c2nc3ccccc3s2)C1", "1 (yes)"],
  ["Cc1cccc(CSC2=NCCN2)c1", "1 (yes)"],
  ["Cn1nc2c(c1CNC(=O)c1ccc3c(c1)OCO3)CCC2", "0 (no)"],
  ["O=C(CC12CC3CC(CC(C3)C1)C2)N1CCCC1", "0 (no)"],
  ["Cc1ccc(Nc2ccc(N3CCNCC3)nn2)cc1", "1 (yes)"],
  ["c1ccc2nc(N3CCOCC3)ccc2c1", "0 (no)"],
  ["Nc1c2c(nc3c1CCC3)CCCC2", "1 (yes)"]
]}

* * *

biological target: Nucleosome-remodeling factor subunit BPTF (Homo sapiens); experiment: Inhibition of biotinylated-H3K4me2 binding to N-terminal His9 tagged human BPTF isoform 2 PHD (2722 to 2781 residues) expressed in Escherichia coli BL21 Star (DE3) measured after 1 hr by Alphascreen assay; settings: read-out: IC50
pIC50: −log10 of the molar value.

{"columns": ["Compound", "pIC50"],
 "data": [
  ["Fc1ccc(Nc2ccc(N3CCNCC3)nn2)cc1", 4.60],
  ["NCC1CC(=O)N(c2ccc(F)c(F)c2)C1 (centres undefined)", 3.66],
  ["CC(=O)N1CCN(c2ccc(Nc3ccc(C)cc3)nn2)CC1", 2.92],
  ["c1ccc(Nc2ccc(N3CCNCC3)nn2)nc1", 4.70],
  ["N#Cc1c(N)sc2c1CCCCC2", 4.20],
  ["N#Cc1c(N)sc2c1CCCC2", 3.89],
  ["Nc1c2c(nc3c1CCC3)CCCC2", 3.23],
  ["O=C(CC12CC3CC(CC(C3)C1)C2)N1CCCC1", 3.30],
  ["NCC1CCN(c2cccc(F)c2)C1 (centres undefined)", 3.42],
  ["Cc1ccc(Nc2ccc(N3CCNCC3)nn2)cc1", 3.52],
  ["CC(=O)N1CCc2c(sc(N)c2C#N)C1", 3.42],
  ["c1ccc(N2CC3CNCC3C2)cc1 (centres undefined)", 3.82],
  ["Cc1ccc(Nc2ccc(N3CCNCC3)nn2)nc1", 4.52],
  ["Clc1ccc(N2CCNCC2)nn1", 3.12]
]}
